protocol_text: qHTS assay to identify small molecule antagonists of the androgen receptor (AR) signaling pathway - cell viability counter screen (AID 743033; also: nearly all actives have a fitted effect of over 45% in size)
setup_conditions: AR-bla HEK293 viability, CellTiter-Glo luminescence, 16 h; series mostly up to 58.5 µM
Inconclusive results are not listed. Calls of active or inactive are those of the source. Calls follow the shape of the dose curve; as a rule, active = well fitted cell-killing curve with a large enough effect in the repeat runs; inconclusive = weak or mixed curves; inactive = no such curve, though single readings can be large or run the other way.
Lab note: assign the record to one of 1 = active, -1 = inactive

Could you check what this test reported for CCN(CC)CCSC(=O)C(c1ccccc1)c1ccccc1 ?
-1

Could you check what this test reported for Cc1cn[nH]c1 ?
-1

***
Could you check what this test reported for Oc1ccc(-c2ccc(O)cc2)cc1 ?
-1

Could you check what this test reported for CCCCN(CCCC)CCC(O)c1cc2c(Cl)cc(Cl)cc2c2cc(C(F)(F)F)ccc12 (centres undefined) ?
-1

Could you check what this test reported for NC(=O)C(=O)N/N=C/c1ccc([N+](=O)[O-])o1 ?
-1

Could you check what this test reported for CC(C)c1ccc(O)c(C(C)C)c1 ?
1

Could you check what this test reported for CNC(=S)NN ?
1

Could you check what this test reported for CSc1c(Cl)c(Cl)c(Cl)c(Cl)c1Cl ?
-1

Could you check what this test reported for CC(=O)OC(OC(C)=O)c1ccc([N+](=O)[O-])o1 ?
1

Could you check what this test reported for CCOC(=O)C1=C(C)NC(C)=C(C(=O)OCC)C1c1ccccc1/C=C/C(=O)OC(C)(C)C ?
-1

Could you check what this test reported for CCN(CC)CCOc1ccc(C(O)(Cc2ccc(Cl)cc2)c2ccc(C)cc2)cc1 (centres undefined) ?
1

Could you check what this test reported for C1CC(COCC2CO2)CCC1COCC1CO1 (centres undefined) ?
-1

Could you check what this test reported for CCCCCCCCCCOCC(O)CN (centres undefined) ?
-1

Could you check what this test reported for C=CC(=O)OCCC#N ?
-1

* * *

protocol_text: A CellTox Green Cytotoxicity Assay to monitor cytotoxicity in HepG2 cells - 24 hour (AID 1224878); also: nearly all actives have a fitted effect of over 45% in size
setup_conditions: CellTox Green fluorescence; series mostly up to 76.8 µM
Inconclusive results are not listed. Activity calls are given as the source filed them. The call rests on the fitted dose curve; in most records, active means well fitted activation curve with a large enough effect in the repeat runs; inconclusive means weak or mixed curves; inactive means flat fitted curve, though single readings scatter.
Lab note: assign the record to one of active, inactive

Consider the following illustrative entries.
Could you check what this test reported for c1ccc(Sc2ccccc2)cc1 ?
inactive

Could you check what this test reported for C/C=C/C(=O)C1=C(C)CCCC1(C)C ?
inactive

Could you check what this test reported for C/C=C/CO ?
inactive

Could you check what this test reported for CCCCCCCC/C=C/CCCOC(C)=O ?
inactive

Could you check what this test reported for CN(Cc1cc(Br)cc(Br)c1N)C1CCCCC1 ?
active

***
Could you check what this test reported for COCC(=O)O[C@]1(CCN(C)CCCc2nc3ccccc3[nH]2)CCc2cc(F)ccc2[C@@H]1C(C)C ?
active

Could you check what this test reported for CC(C)=C1CC[C@@H](C)CC1=O ?
inactive

Could you check what this test reported for O[C@@H](c1cc(C(F)(F)F)nc2c(C(F)(F)F)cccc12)[C@H]1CCCCN1 ?
active

* * *

protocol_text: qHTS assay to identify small molecule agonists of the farnesoid-X-receptor (FXR) signaling pathway - cell viability counter screen (AID 743218); also: nearly all actives have a fitted effect of over 45% in size; also: potency is read from the fitted curve at half-maximal effect
setup_conditions: FXR-bla HEK293T viability, CellTiter-Glo luminescence, 16 h; series mostly up to 62.6 µM
Inconclusive results are not listed. Activity calls are given as the source filed them. Calls come from the whole dose curve; as a rule, active = well fitted cell-killing curve with a large enough effect in the repeat runs; inconclusive = weak or mixed curves, or effect the other way; inactive = no such curve, though single readings can be large or run the other way.
observed_property: Potency

Here is how some compounds turned out for Potency.
# Potency (compound: CCCCCCCC/C=C/CCCOC(C)=O ) is inactive

# Potency (compound: O=C1Nc2ccc(Cl)cc2[C@@](C#CC2CC2)(C(F)(F)F)O1 ) is inactive

# Potency (compound: COC(=O)CC(C)CCC=C(C)C (configuration not stated) ) is inactive

# Potency (compound: CCOC(=O)N1CCC(=C2c3ccc(Cl)cc3CCc3cccnc32)CC1 ) is 21.9 µM (active)

# Potency (compound: CCCCCCCCCCCCOC(=O)c1cc(O)c(O)c(O)c1 ) is 43.5 µM (active)

# Potency (compound: CC(C)c1ccc(O)c(C(C)C)c1 ) is inactive

# Potency (compound: C[Si](C)(C)Cl ) is inactive

# Potency (compound: Cc1c(C(=O)O)cccc1[N+](=O)[O-] ) is inactive

Record Potency per entry; entries follow.
1. O=C1NCCN1CCN1CCC(c2cn(-c3ccc(F)cc3)c3ccc(Cl)cc23)CC1
2. NC1(c2ccc(-c3nc4ccn5c(=O)[nH]nc5c4cc3-c3ccccc3)cc2)CCC1
3. C=C1C(C)(C)[C@@]2(Cl)C(Cl)[C@]1(Cl)C(Cl)(Cl)C2(Cl)Cl (some centres not stated)
4. SCCCCCCCCS

["23.7 µM (active)", "26.6 µM (active)", "53.9 µM (active)", "inactive"]

* * *

protocol_text: Caspase-3/7 induction in HepG2 cells by small molecules, qHTS cell viability counter screen (AID 1346981); also: nearly all actives have a fitted effect of over 30% in size; also: potency is read from the fitted curve at half-maximal effect
setup_conditions: CellTiter-Fluor fluorescence, 17 h; series mostly up to 92.4 µM
Inconclusive results are not listed. Active and inactive are the calls of the source. Calls come from the whole dose curve; as a rule, active = well fitted cell-killing curve with a large enough effect in the repeat runs; inconclusive = weak or mixed curves, or effect the other way; inactive = flat fitted curve, though single readings scatter.
observed_property: Potency

# Potency (molecule: CCCCCCCCCCCCOC(=O)c1cc(O)c(O)c(O)c1 ) is 60.9 µM (active)

# Potency (molecule: CO[Si](CCCNCCNCCN)(OC)OC ) is inactive

# Potency (molecule: CCOC(OCC)C(=O)c1ccccc1 ) is inactive

# Potency (molecule: c1ccc(Sc2ccccc2)cc1 ) is inactive

# Potency (molecule: NC(=O)c1nc(-c2cccc(-c3cc(F)ccc3OCC(F)(F)C(F)(F)F)c2)n[nH]1 ) is 61.1 µM (active)

Record Potency per entry; entries follow.
1. NCCCCCCNCCCCCCN
2. CCc1ccc(O)c(C(C)(C)C)c1
3. OCCCc1cccnc1
4. CCCSS/C(CCO)=C(\C)N(C=O)Cc1cnc(C)nc1N
5. C[C@@]12C(=O)OC(=O)[C@]1(C)C1CCC2O1
6. C=CC(=O)OCCC#N
7. CCCCCCCC(=O)OCC
8. Cc1cccc(C)n1

inactive
inactive
inactive
inactive
2.98 µM (active)
inactive
inactive
inactive

Record Potency per entry; entries follow.
1. CC(=O)OC(OC(C)=O)c1ccc([N+](=O)[O-])o1
2. Cc1ccc(N)cc1O

62.2 µM (active)
inactive

* * *

protocol_text: qHTS assay to identify small molecule agonists of the RXR signaling pathway - cell viability counter screen (AID 1159529); also: nearly all actives have a fitted effect of over 50% in size
setup_conditions: RXR-alpha-bla HEK293T viability, CellTiter-Glo, 16 h; series mostly up to 76.8 µM
Records with an inconclusive call do not appear. Activity calls are given as the source filed them. Calls come from the whole dose curve; as a rule, active = well fitted cell-killing curve with a large enough effect in the repeat runs; inconclusive = weak or mixed curves, or effect the other way; inactive = no such curve, though single readings can be large or run the other way.
Lab note: assign the record to one of 1.0 = active, 0.0 = inactive

Consider the following illustrative entries.
Could you check what this test reported for CCCCCCCC(=O)OCC ?
0.0

Could you check what this test reported for CC(O)C#CC(C)O (stereo not drawn) ?
1.0

Could you check what this test reported for CCCCN(C)C ?
0.0

Could you check what this test reported for CCCCCCCCCCCCCC[n+]1ccccc1 ?
1.0

Could you check what this test reported for CC(C)c1ccc(O)c(C(C)C)c1 ?
1.0

Could you check what this test reported for CCCCNc1c(C(=O)OCC)c(C)nc2c1cnn2CC ?
0.0

***
Could you check what this test reported for CC(C)CCOCCC(C)C ?
0.0

Could you check what this test reported for CCc1c(Br)c(Br)c(Br)c(Br)c1Br ?
0.0

* * *

system: Cytochrome P450 2D6 (Homo sapiens) (UniProt P10635)
Sequence (P10635 whole entry, looked up): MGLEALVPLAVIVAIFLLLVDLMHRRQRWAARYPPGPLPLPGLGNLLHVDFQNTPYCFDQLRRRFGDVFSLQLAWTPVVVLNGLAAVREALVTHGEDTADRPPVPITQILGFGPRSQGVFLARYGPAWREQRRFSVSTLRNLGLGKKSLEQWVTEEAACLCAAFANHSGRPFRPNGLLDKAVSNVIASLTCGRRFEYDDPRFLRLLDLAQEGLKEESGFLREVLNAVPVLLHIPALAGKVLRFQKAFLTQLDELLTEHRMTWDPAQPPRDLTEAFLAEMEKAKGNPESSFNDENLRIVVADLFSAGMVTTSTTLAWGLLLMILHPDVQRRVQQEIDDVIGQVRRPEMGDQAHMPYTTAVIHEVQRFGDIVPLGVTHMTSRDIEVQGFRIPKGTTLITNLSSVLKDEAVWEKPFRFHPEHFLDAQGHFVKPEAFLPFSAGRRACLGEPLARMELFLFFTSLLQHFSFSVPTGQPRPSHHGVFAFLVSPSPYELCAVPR
protocol_text: Cytochrome P450 Family 2 Subfamily D Member 6 (CYP2D6) small molecule antagonists: luciferase reporter qHTS assay (AID 1671196); also: nearly all actives have a fitted effect of over 50% in size
setup_conditions: P450-Glo CYP2D6 enzyme assay, luciferin luminescence, 1 h; series mostly up to 115 µM
Text: U.S. Tox21 Program National Center for Advancing Translational Sciences [NCATS] U.S. Environmental Protection Agency [EPA] National Institutes of Environmental Health Sciences [NIEHS] National Toxicology Program [NTP] U.S. Food and Drug Administration [FDA] […] The luciferin products formed are detected with a luciferin detection reagent, and the amount of light produced is proportional to CYP activity. […]
Records with an inconclusive call do not appear. The source made the active and inactive calls. Calls follow the shape of the dose curve; as a rule, active = well fitted inhibition curve with a large enough effect in the repeat runs; inconclusive = weak or mixed curves; inactive = no such curve, though single readings can be large or run the other way.
Lab note: assign the record to one of active, inactive

Could you check what this test reported for CCc1c(Br)c(Br)c(Br)c(Br)c1Br ?
inactive

***
Could you check what this test reported for CCC1CCCCC1 ?
inactive

Could you check what this test reported for CCO[Si](C)(C)OCC ?
inactive

Could you check what this test reported for S=P(N1CC1)(N1CC1)N1CC1 ?
active

Could you check what this test reported for CCCC(C)CCC(C)=O (stereo not given) ?
inactive

Could you check what this test reported for CC(C(O)c1ccccc1)N(C)CCOC(c1ccccc1)c1ccccc1 (stereo not given) ?
active

Could you check what this test reported for CCCCCCOc1cc(C)c(O)c(C)c1C ?
active

Could you check what this test reported for OCCCS ?
inactive

* * *

system: Cytochrome P450 3A4 (Homo sapiens) (UniProt P08684)
Sequence (P08684 whole entry, looked up): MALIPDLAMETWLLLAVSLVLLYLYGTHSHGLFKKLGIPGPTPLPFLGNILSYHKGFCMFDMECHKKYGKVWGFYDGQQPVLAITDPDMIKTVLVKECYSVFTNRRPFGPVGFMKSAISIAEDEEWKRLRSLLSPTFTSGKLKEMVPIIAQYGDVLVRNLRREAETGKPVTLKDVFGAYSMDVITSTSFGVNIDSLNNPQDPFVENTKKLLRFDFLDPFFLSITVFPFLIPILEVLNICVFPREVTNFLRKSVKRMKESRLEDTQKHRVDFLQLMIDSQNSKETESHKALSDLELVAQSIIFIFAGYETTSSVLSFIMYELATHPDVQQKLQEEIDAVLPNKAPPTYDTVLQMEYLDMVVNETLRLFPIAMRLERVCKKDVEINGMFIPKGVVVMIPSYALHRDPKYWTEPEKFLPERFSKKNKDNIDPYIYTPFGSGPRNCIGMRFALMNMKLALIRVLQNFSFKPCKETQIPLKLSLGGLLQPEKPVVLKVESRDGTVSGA
protocol_text: Cytochrome P450 Family 3 Subfamily A Member 4 (CYP3A4) small molecule antagonists: luciferase reporter qHTS assay (AID 1671201); also: nearly all actives have a fitted effect of over 50% in size
setup_conditions: P450-Glo CYP3A4 enzyme, luciferin luminescence, 1 h; series mostly up to 115 µM
Inconclusive results are not listed. Active and inactive are the calls of the source. The call rests on the fitted dose curve; in most records, active means well fitted inhibition curve with a large enough effect in the repeat runs; inconclusive means weak or mixed curves; inactive means no such curve, though single readings can be large or run the other way.
Lab note: assign the record to one of class 1 for active, class 0 for inactive

Consider the following illustrative entries.
Could you check what this test reported for CCc1ccc(C)nc1 ?
class 0

Could you check what this test reported for O=C(O)c1cccc(Cl)n1 ?
class 0

Could you check what this test reported for NC(=O)c1ccccc1N ?
class 0

Could you check what this test reported for CCN(CC)CCCN(c1ccccc1)C1Cc2ccccc2C1 ?
class 0

Could you check what this test reported for Cc1cccc(C)n1 ?
class 0

***
Could you check what this test reported for C=CC/C=C/C/C=C/C/C=C/C ?
class 0

Could you check what this test reported for CC1(C)C(=O)N(Br)C(=O)N1Br ?
class 0

Could you check what this test reported for CC(C)(C)C1=CC(=O)C=C(C(C)(C)C)C1=O ?
class 0
